Just for reference, patent US5795612A is where these values come from.

- Assay: Sensory evaluation of sweetness potency relative to sugar
- Measurement conditions: Table 1; compared with 4% aqueous sucrose solution
The reader will find reported Sweetnes Potency values listed item by item below.
Form rule: numeric answer, no unit written next to it.

compound=CC[C@H](NC(=O)[C@H](NC(=O)[C@@H](N)CC(=O)O)C(C)C)c1ccncc1 reported_property="Sweetnes Potency" numeric_result=300
compound=CC[C@H](NC(=O)[C@@H](CC)NC(=O)[C@@H](N)CC(=O)O)c1ccc(O)cc1 reported_property="Sweetnes Potency" numeric_result=2000
compound="COCC(NC(=O)[C@H](NC(=O)[C@@H](N)CC(=O)O)C(C)C)c1ccco1 (mixture of isomers)" reported_property="Sweetnes Potency" numeric_result=200
compound=COC[C@H](NC(=O)[C@H](NC(=O)[C@@H](N)CC(=O)O)C(C)C)c1ccc(OC)cc1 reported_property="Sweetnes Potency" numeric_result=250

Now let's try a different one.
# return recorded Sweetnes Potency for input CC[C@@H](NC(=O)[C@@H](N)CC(=O)O)C(=O)N[C@@H](COC)c1ccc(O)cc1
1500

* * *

- Assay: Sensory evaluation of sweetness potency relative to sugar
- Measurement conditions: sugar=1; sensory evaluation
Reported property: Sweetness Potency (sugar=1)
In your answer, state the number alone without any accompanying words.

Previously resolved entries follow.
compound="CC[C@H](NC(=O)[C@@H](CC)NC(=O)[C@@H](N)CC(=O)O)c1ccc(O)cc1 [Example 1]" reported_property="Sweetness Potency (sugar=1)" numeric_result=2000
compound="CC(C)[C@@H](NC(=O)[C@@H](N)CC(=O)O)C(=O)N[C@@H](C)c1ccc(O)cc1 [Example 5]" reported_property="Sweetness Potency (sugar=1)" numeric_result=1000
compound="CC[C@H](NC(=O)[C@H](NC(=O)[C@@H](N)CC(=O)O)C(C)C)c1ccc(O)cc1 [Example 3]" reported_property="Sweetness Potency (sugar=1)" numeric_result=1500
compound="CC[C@@H](NC(=O)[C@@H](N)CC(=O)O)C(=O)N[C@@H](COC)c1ccc(O)cc1 [Example 2]" reported_property="Sweetness Potency (sugar=1)" numeric_result=1500

Entry CC[C@H](NC(=O)[C@H](NC(=O)[C@@H](N)CC(=O)O)C(C)C)c1ccc(Cl)cc1 [Example 6] needs its Sweetness Potency (sugar=1) filled in; supply it.
1250

Answer with the recorded Sweetness Potency (sugar=1) of COC[C@H](NC(=O)[C@H](NC(=O)[C@@H](N)CC(=O)O)C(C)C)c1ccc(O)cc1 [Example 4] only.
1250

* * *

Property: Sweetnes Potency; scope: individual molecules
- Assay: Sensory evaluation of sweetness potency relative to sugar
- Measurement conditions: Table 1; compared with 4% aqueous sucrose solution
Give only the figure.

Sample records with Sweetnes Potency:
compound=CC[C@H](NC(=O)[C@H](NC(=O)[C@@H](N)CC(=O)O)C(C)C)c1ccc(O)cc1 numeric_result=1500
compound=COC[C@H](NC(=O)[C@H](NC(=O)[C@@H](N)CC(=O)O)C(C)C)c1ccc(O)cc1 numeric_result=1250
compound=CC(C)[C@@H](NC(=O)[C@@H](N)CC(=O)O)C(=O)N[C@@H](C)c1ccc(O)cc1 numeric_result=1000

Hello, please tell me recorded Sweetnes Potency for this one: CC[C@H](NC(=O)[C@H](NC(=O)[C@@H](N)CC(=O)O)C(C)C)c1ccc(Cl)cc1
1250
